assayed-target: ERBB2 (HER2) (UniProt P04626 P04626:23-652)
experimental-details: filter; +/-0.39; same buffer, 37 C
condition-details: tags: His-tagged; R&D Systems Cat# 1129-ER; label: 5'-32P
Description: Aptamers identified using the above SELEX process were amplified by PCR and cloned as described above. Up to fifty randomly picked plasmid clones were sequenced. […] Radio labeled aptamers that were bound to target proteins were then detected by phosphoimager. Specifically, Aptamer-protein equilibrium dissociation constants (Kd's) were determined by the nitrocellulose-filter binding method as described by White et al. in Mol. Ther., 2001, 4(6), 567-73. […]
readout-type: Kd (nM)

• ERBB2-10 (ssDNA) DNA: GAGTGACCGTCTGCCTGGTTAGACTGAACGCACTGAGGGCCGCAGCCTATCTGAAGGCAGCCACACCACCAGCC = 3.7
